Target: UniProt:P49137
Sequence (P49137 whole entry): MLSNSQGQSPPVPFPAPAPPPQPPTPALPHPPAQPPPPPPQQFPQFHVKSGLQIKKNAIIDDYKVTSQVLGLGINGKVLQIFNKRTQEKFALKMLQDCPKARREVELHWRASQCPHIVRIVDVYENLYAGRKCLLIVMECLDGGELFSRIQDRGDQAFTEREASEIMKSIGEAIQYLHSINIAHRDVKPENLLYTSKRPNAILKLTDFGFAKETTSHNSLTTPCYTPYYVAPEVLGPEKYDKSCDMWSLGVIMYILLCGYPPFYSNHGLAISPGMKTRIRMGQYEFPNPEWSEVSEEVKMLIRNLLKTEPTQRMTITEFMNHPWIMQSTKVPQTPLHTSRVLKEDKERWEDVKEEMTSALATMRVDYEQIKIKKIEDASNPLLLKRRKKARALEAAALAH
Assay: MK2 degradation in human THP-1 monocytic cells (MSD, 24 h)
Assay type: cell-based
Parameters: endogenous in cells
Conditions: THP-1 cells, read-out: MK2 MSD THP-1 degradation 24 h GMean External Abs DC50
# DC50 per record follows

COMPOUND	ENDPOINT RESULT
C[C@@H]1CNc2c(sc3ccc4nc(-c5cncc(N6CCN(CC7CCN(c8ccc9c(c8)n(C)c(=O)n9C8CCC(=O)NC8=O)CC7)CC6)c5)ccc4c23)C(=O)N1 (stereo partly drawn)	< 1 nM

What the record says about CN1CC2(CNC(=O)c3c2[nH]c2c3CCc3cnc(-c4ccc(CN5CCC(OCC#Cc6ccc7c(c6)n(C)c(=O)n7C6CCC(=O)NC6=O)CC5)cc4F)cc3-2)C1 (stereo not drawn) : DC50 is > 100 nM

What the record says about Cn1c(=O)n(C2CCC(=O)NC2=O)c2ccc(N3CCC(CN4CCN(c5cc(C#N)cc(-n6cc(-c7ccc8c(c7)CCNC8=O)c(N)n6)c5)CC4)CC3)cc21 (stereo not drawn) : DC50 is > 100 nM
